Task for the reader: assign each of the following compounds its reported EC50.
Test system: HIV-1NL4-3 wt
Measurement Description: Light assay with wild-type HI reporter virus in MT4 7F2 cells
Type: cell-based
Condition Parameters: Human immunodeficiency virus 1, 2% FCS
One number for each entry, in nM.

[[record]]
compound = "COc1cccc(-c2oc(C(=O)N3CNC(=O)C3)cc2-c2cccc(Cl)c2)c1 [Example 27]"
meas_value = 14


Look at each compound and report its EC50.
1. O=C(c1cc(-c2cc(F)cc(Cl)c2)c(-c2ccc(F)c(Cl)c2)o1)N1CCOCC1 [Example 9]
2. O=C1CN(C(=O)c2cc(-c3cc(F)cc(Cl)c3)c(-c3cccc(Cl)c3)o2)CN1 [Example 16]

1. 19
2. 2

Look at each compound and report its EC50.
1. O=C1CN(C(=O)c2cc(-c3cc(F)cc(F)c3)c(-c3cccc(Cl)c3)o2)CN1 [Example 15]
2. O=C1CN(C(=O)c2cc(-c3cccc(Cl)c3)c(-c3ccc(F)c(Cl)c3)o2)CN1 [Example 25]

1. 9
2. 18

Look at each compound and report its EC50.
1. O=C1CN(C(=O)c2cc(-c3cc(F)cc(Cl)c3)c(-c3ccc(F)c(Cl)c3)o2)CN1 [Example 11]
2. N#Cc1cccc(-c2oc(C(=O)N3CCNC(=O)C3)cc2-c2cc(F)cc(Cl)c2)c1 [Example 8]
3. O=C1CN(C(=O)c2cc(-c3cc(F)cc(F)c3)c(-c3cccc(Cl)c3)o2)CCN1 [Example 17]
4. N#Cc1cccc(-c2oc(C(=O)N3CCNC(=O)C3)cc2-c2cccc(Cl)c2)c1 [Example 20]
5. Cc1cccc(-c2oc(C(=O)N3CCNC(=O)C3)cc2-c2cccc(Cl)c2)c1 [Example 18]

20
1
6
2
45

Look at each compound and report its EC50.
1. O=C(c1cc(-c2cc(F)cc(Cl)c2)c(-c2ccc(F)c(Cl)c2)o1)N1CCSC1 [Example 2]
2. N#Cc1cc(F)cc(-c2cc(C(=O)N3CNC(=O)C3)oc2-c2ccc(F)c(Cl)c2)c1 [Example 31]
3. O=C1CN(C(=O)c2cc(-c3cccc(Cl)c3)c(-c3ccc(F)c(Cl)c3)o2)CCN1 [Example 22]
4. O=C1CN(C(=O)c2cc(-c3cc(Cl)ccc3F)c(-c3cccc(Cl)c3)o2)CCN1 [Example 13]
5. N#Cc1cc(F)cc(-c2cc(C(=O)N3CNC(=O)C3)oc2-c2cccc(Cl)c2)c1 [Example 32]
6. O=C1CN(C(=O)c2cc(-c3cc(F)cc(Cl)c3)c(-c3ccc(F)c(Cl)c3)o2)CCN1 [Example 7]

1: 40; 2: 8; 3: 7; 4: 15; 5: 2; 6: 5

Look at each compound and report its EC50.
1. COc1cccc(-c2cc(C(=O)N3CCNC(=O)C3)oc2-c2cccc(Cl)c2)c1 [Example 29]
2. Cc1cc(C)cc(-c2cc(C(=O)N3CCNC(=O)C3)oc2-c2cccc(Cl)c2)c1 [Example 28]
3. N#Cc1cccc(-c2oc(C(=O)N3CC[C@@H](O)C3)cc2-c2cc(F)cc(Cl)c2)c1 [Example 10]

1: 53; 2: 30; 3: 1
